Target: Matrix metalloproteinase-14 (Homo sapiens)
Assay: blockers of MT1-MMP proenzyme processing, primary screen, HT1080 RFP-PRO-GFP cells, GFP/RFP fluorescence (AID 651647)
Settings: overnight, at 20 µM, hits give high values, percent of plate control window, DMSO zero
In all, about 360,000 compounds went through this assay and about 220 (0.061%) were called active. Only a selection was taken, and actives are over-represented in it overall.
readoutName: GFP/RFP ratio change (%)
Your answer is read as %, so omit the unit and give the number.

Entry Cc1ccc(C(=O)OCC(=O)Nc2ccc(Cl)cn2)cc1S(=O)(=O)N1CCOCC1 ; GFP/RFP ratio change = 2.27

Entry CC(=O)c1cc2c(cc1NC(=O)CN1CCCCCC1)OCO2 ; GFP/RFP ratio change = -5.12

Entry CCC(=O)N1CCCC1(C)C(=O)Nc1ccc2c(c1)CCN2C(C)=O (stereo not given) ; GFP/RFP ratio change = -0.545

Entry CC(C)[C@H](NC(=O)N1CCn2c1nc1ccccc12)C(=O)NCCc1ccccc1 ; GFP/RFP ratio change = 1.13

Entry CC12CCC(C(=O)N(NC(=O)c3ccccc3O)C1=O)C2(C)C (stereo not given) ; GFP/RFP ratio change = 2.09

* * *

For each entry below, report its GFP/RFP ratio change value.
Target: Matrix metalloproteinase-14 (Homo sapiens)
Experiment: blockers of MT1-MMP proenzyme processing, primary screen, HT1080 RFP-PRO-GFP cells, GFP/RFP fluorescence (AID 651647)
Conditions: overnight, at 20 µM, hits give high values, percent of plate control window, DMSO zero
Among all 360,000 compounds or so, about 220 (0.061%) were called active. The sample holds actives, similar compounds and a random draw of the others, so the mix is not that of the screen.
Your answer is read as %, so omit the unit and give the number.

Entry O=C(NC1CCCC1)C(c1ccc(Cl)cc1)N(C(=O)c1csnn1)C1CC1 (centres undefined) ; GFP/RFP ratio change = -4.04

Entry CC(C)(C)OC(=O)N1CCN(C(=O)c2[nH]c(C(F)(F)F)nc2-c2ccccc2)CC1 ; GFP/RFP ratio change = 3.61

Entry COc1ccc(C(=O)COC(=O)c2c(C)noc2C)cc1Cl ; GFP/RFP ratio change = 0.327

Entry Cc1ccc2c(c1)N(CC(=O)NCCCN1CCCCC1)C(=O)c1cccnc1O2 ; GFP/RFP ratio change = 1.06

Entry O=C(COC(=O)c1ccc(S(=O)(=O)N2CCCCCC2)cc1)Nc1ccccc1C(F)(F)F ; GFP/RFP ratio change = -2.08

Entry CCc1ccc(-c2cc3c(=O)n(CC(=O)NCCCN4CCN(Cc5ccccc5)CC4)nc(C)n3n2)cc1 ; GFP/RFP ratio change = -3.13

Entry CCCc1c(C(=O)N/N=C(\C)CCc2ccc(OC)cc2)nnn1-c1nonc1N ; GFP/RFP ratio change = 0.35

Entry CC1CC(C)CN(CCCNC(=O)Cn2ncc3c([nH]c4ccccc43)c2=O)C1 (centres undefined) ; GFP/RFP ratio change = -6.2

Entry N/C(=N\OS(=O)(=O)c1cccc([N+](=O)[O-])c1)c1ccncc1 ; GFP/RFP ratio change = 1.12
